Structures can show the parent of a compound that is named as a salt.
reported_metric: melting point

Past entries and their recorded results:
O=S(=O)(c1ccc2c(c1)OC1CNCCC21)c1cccc(OCC2CCOCC2)c1F (stereo not drawn) (as salt: HCl) [Example 482]; 175 to 177 °C
CC(C)Oc1cccc(S(=O)(=O)c2ccc3c(c2)OC2CNCCC32C)c1 (single isomer, unassigned) (as salt: HCl) [Example 21]; 183 to 184 °C
NC(=O)COc1cccc(S(=O)(=O)c2ccc3c(c2)OC2CNCCC32)c1 (stereo not drawn) (as salt: HCl) [Example 563]; 237 to 239 °C
CC1(C)NCCc2c1oc1cc(S(=O)(=O)c3ccc(F)c(Cl)c3)ccc21 (as salt: HCl) [Example 18]; > 200 °C (dec.)
Cn1ccc2c(S(=O)(=O)c3ccc4c(c3)OC3CNCCC43)cccc21 (stereo not drawn) [Example 68]; 164 to 165 °C

Which melting point is listed for CC12CCNCC1Oc1cc(S(=O)(=O)c3cccc(F)c3F)ccc12 (stereo not drawn) (as salt: HCl) [Example 488] ?
202 to 204 °C

Which melting point is listed for Cc1cccc(S(=O)(=O)c2ccc3c4c(oc3c2)C(C)(C)NCC4)n1 (as salt: HCl) [Example 19] ?
305 to 310 °C

Which melting point is listed for CC(=O)N1CCC2(CC1)NCCc1c2oc2cc(S(=O)(=O)c3cccc(F)c3)ccc12 (as salt: HCl) [Example 41] ?
256 °C (dec.)

Which melting point is listed for O=S(=O)(c1cc(F)cc(OCc2ccccc2)c1)c1ccc2c(c1)OC1CNCCC21 (stereo not drawn) (as salt: HCl) [Example 484] ?
171 to 172 °C

* * *

- target_or_system: human 5-HT6 receptor (Homo sapiens)
- Construct: host or cells: CHO-K1 cells, stably transfected; membranes prepared in house
- measurement_protocol: Human 5-HT6 Receptor Binding Assay ([3H]LSD displacement, scintillation beads)
- stated_conditions: membranes of CHO-K1 cells with recombinant human 5-HT6, 4 nM [3H]LSD; Table 1, class symbols; read-out: h5-HT6 (Ki)
As shown below, each of these compounds has a reported Ki value.

Past entries and their recorded results:
O=S(=O)(c1ccc(Oc2ccccc2)cc1)c1ccc2c3c(oc2c1)CNCC3; < 500 nM
CC1(C)NCCc2c1oc1cc(S(=O)(=O)c3ccc(F)c(Cl)c3)ccc21; < 500 nM
O=S(=O)(c1ccc2oc3c(c2c1)CCNC3)c1cccc(Cl)c1Cl; < 500 nM

Return Ki measured with human 5-HT6 receptor (Homo sapiens) given this compound: O=S(=O)(Oc1ccc2c(c1)C1CCNCC1O2)c1cc2ccccc2o1 (stereo not drawn) [Example 713]
< 500 nM

Return Ki measured with human 5-HT6 receptor (Homo sapiens) given this compound: CC(C)c1ccc(S(=O)(=O)Oc2ccc3c(c2)C2(C)CCNCC2O3)cc1 (stereo not drawn)
500 to 1000 nM

* * *

- target_or_system: human 5-HT6 receptor (Homo sapiens, UniProt P50406)
- Construct: host or cells: CHO-K1 cells, stably transfected; membranes prepared in house
- Sequence (P50406 whole entry): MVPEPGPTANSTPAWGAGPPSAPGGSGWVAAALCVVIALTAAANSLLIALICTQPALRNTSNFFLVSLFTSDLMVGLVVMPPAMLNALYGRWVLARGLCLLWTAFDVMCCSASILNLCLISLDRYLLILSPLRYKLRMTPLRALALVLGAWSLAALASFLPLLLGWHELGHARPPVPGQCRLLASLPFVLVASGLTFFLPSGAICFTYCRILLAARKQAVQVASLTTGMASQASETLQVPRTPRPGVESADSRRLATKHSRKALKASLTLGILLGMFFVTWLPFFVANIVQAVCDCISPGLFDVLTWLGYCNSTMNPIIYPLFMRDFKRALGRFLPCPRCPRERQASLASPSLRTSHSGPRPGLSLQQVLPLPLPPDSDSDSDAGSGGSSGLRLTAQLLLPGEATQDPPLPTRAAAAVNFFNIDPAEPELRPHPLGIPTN
- measurement_protocol: Human 5-HT6 Receptor Binding Assay ([3H]LSD displacement, scintillation beads)
- stated_conditions: membranes of CHO-K1 cells with recombinant human 5-HT6, 4 nM [3H]LSD; Table 1, class symbols; read-out: h5-HT6 (Ki)
pKi: −log10 of the molar value.
reported_metric: pKi

CC1NCCc2c1oc1ccc(S(=O)(=O)c3ccc(F)c(F)c3)cc21 (centres unmarked); > 6.30
CC1(C)NCCc2c1oc1cc(S(=O)(=O)c3cc[nH]c(=O)c3)ccc21; > 6.30
CC(=O)Nc1cccc(S(=O)(=O)c2ccc3c(c2)OC2CNCCC32)c1 (centres unmarked); > 6.30
COc1cccc(S(=O)(=O)c2ccc3oc4c(c3c2)CCNC4)c1; > 6.30
CC1(C)NCCc2c1oc1cc(S(=O)(=O)c3cccc(C(F)(F)F)c3)ccc21; > 6.30

Return pKi measured with human 5-HT6 receptor (Homo sapiens, UniProt P50406) given this compound: COCC1NCCc2c1oc1cc(S(=O)(=O)c3cccc(F)c3)ccc21 (centres unmarked)
> 6.30

Return pKi measured with human 5-HT6 receptor (Homo sapiens, UniProt P50406) given this compound: Cc1c(S(=O)(=O)Oc2ccc3c(c2)C2CCNCC2O3)sc2ccc(Cl)cc12 (centres unmarked)
> 6.30

Return pKi measured with human 5-HT6 receptor (Homo sapiens, UniProt P50406) given this compound: O=S(=O)(c1ccc2c(c1)OC1CNCCC21)c1ccccn1 (centres unmarked)
6.00 to 6.30

Return pKi measured with human 5-HT6 receptor (Homo sapiens, UniProt P50406) given this compound: O=S(=O)(Nc1cccc(F)c1F)c1ccc2c(c1)C1CCNCC1O2 (centres unmarked)
< 6.00

Return pKi measured with human 5-HT6 receptor (Homo sapiens, UniProt P50406) given this compound: COc1cncc(S(=O)(=O)c2ccc3c4c(oc3c2)CNCC4(C)C)c1
> 6.30

Return pKi measured with human 5-HT6 receptor (Homo sapiens, UniProt P50406) given this compound: CC12CCNCC1Oc1ccc(S(=O)(=O)c3ccncc3)cc12 (racemic)
< 6.00

Return pKi measured with human 5-HT6 receptor (Homo sapiens, UniProt P50406) given this compound: O=S(=O)(c1cccc(Cl)c1)c1ccc2c3c(oc2c1)C1(CCOC1)NCC3 (centres unmarked) [Example 303]
> 6.30

Return pKi measured with human 5-HT6 receptor (Homo sapiens, UniProt P50406) given this compound: O=S(=O)(Oc1ccc2c(c1)C1CCNCC1O2)c1ccc2ccccc2c1 (centres unmarked)
> 6.30

* * *

Where a name gives a salt, the structure may show the parent alone.
As shown below, each of these molecules has a reported melting point value.

Past entries and their recorded results:
COc1cc(OCC2CCOCC2)cc(S(=O)(=O)c2ccc3c(c2)OC2CNCCC32)c1 (stereo not drawn) (as salt: HCl); 207 to 208 °C
CC1(C2CC2)NCCc2c1oc1cc(S(=O)(=O)c3cccc(F)c3)ccc21 (racemic) (as salt: HCl); > 250 °C (dec.)
CC12CCNCC1Oc1ccc(S(=O)(=O)c3ccccc3CO)cc12 (stereo not drawn); 204 to 206 °C

Which melting point is listed for CN(C)C(=O)c1c(F)cccc1S(=O)(=O)c1ccc2c3c(oc2c1)CNCC3 (as salt: HCl) ?
245 to 248 °C

Which melting point is listed for COc1cc(OCC2CC2)cc(S(=O)(=O)c2ccc3c(c2)OC2CNCCC32)c1 (stereo not drawn) (as salt: HCl) ?
224 to 225 °C

Which melting point is listed for CC(=O)NCC1(C)NCCc2c1oc1cc(S(=O)(=O)c3cccc(F)c3)ccc21 (stereo not drawn) (as salt: HCl) [Example 632] ?
210 to 260 °C

Which melting point is listed for COc1cc(OC(C)C)cc(S(=O)(=O)c2ccc3c4c(oc3c2)CNCC4(C)C)c1 ?
246 to 247 °C

Which melting point is listed for O=S(=O)(c1cccc(OCc2ccccn2)c1)c1ccc2c(c1)OC1CNCCC21 (stereo not drawn) (as salt: HCl) ?
179 to 182 °C

Which melting point is listed for O=S(=O)(c1cccc(OCc2cccnc2)c1)c1ccc2c(c1)OC1CNCCC21 (stereo not drawn) (as salt: HCl) ?
167 to 171 °C

Which melting point is listed for O=S(=O)(c1ccc2c(c1)OC1CNCCC21)c1cccc(OCC2CCOCC2)c1Cl (stereo not drawn) (as salt: HCl) ?
185 to 187 °C

Which melting point is listed for O=S(=O)(c1cccc(OCC2CCCO2)c1)c1ccc2c(c1)OC1CNCCC21 (stereo not drawn) (as salt: HCl) ?
205 to 206 °C

Which melting point is listed for Cc1ccc2nsnc2c1S(=O)(=O)c1ccc2c(c1)OC1CNCCC21 (stereo not drawn) ?
200 to 201 °C

Which melting point is listed for Cc1ccnc(S(=O)(=O)c2ccc3c(c2)OC2CNCCC32C)n1 (racemic) (as salt: HCl) ?
199 to 201 °C

Which melting point is listed for O=S(=O)(c1cccc(OC2CCOCC2)c1)c1ccc2c(c1)OC1CNCCC21 (stereo not drawn) (as salt: HCl) ?
184 to 186 °C

Which melting point is listed for CC(C)CC1(C)NCCc2c1oc1cc(S(=O)(=O)c3cccc(F)c3)ccc21 (racemic) (as salt: HCl) ?
284 to 286 °C

Which melting point is listed for CC1CNCc2oc3cc(S(=O)(=O)c4cccc(F)c4)ccc3c21 (stereo not drawn) ?
> 300 °C

Which melting point is listed for Cc1nc(COc2cccc(S(=O)(=O)c3ccc4c(c3)OC3CNCCC43)c2)cs1 (stereo not drawn) (as salt: HCl) ?
205 to 208 °C

Which melting point is listed for CC(C)Oc1cccc(S(=O)(=O)c2ccc3c(c2)OC2CNCCC32C)c1 (racemic) (as salt: HCl) [Example 12] ?
206 to 208 °C

Which melting point is listed for O=S(=O)(c1cccc(OCC2CC2)c1)c1ccc2c(c1)OC1CNCCC21 (stereo not drawn) (as salt: HCl) ?
208 to 210 °C
